Tested on: SARS-CoV-2-GHB-03021/2020
Assay Text: microbe, parasite or virus in culture
Assay type: cell-based
Condition Notes: Severe acute respiratory syndrome coronavirus 2, Vero C1008, 96 h; read-out: VeroE6 + CP (EC50)
Some compounds, each annotated with its measured EC50.

Consider the worked cases shown below.
{"Compound": "O=C1NCC[C@H]1C[C@H](NC(=O)[C@@H]1[C@H]2CCC[C@H]2CN1C(=O)c1cc2c(OCc3ccccc3)cccc2[nH]1)C(=O)CO [Compound 133]", "Parameter Measured": "EC50", "Assay Result": "< 1000 nM"}
{"Compound": "COc1cc(C(F)(F)F)cc2[nH]c(C(=O)N3C[C@@H]4CCC[C@@H]4[C@H]3C(=O)N[C@@H](C[C@@H]3CCNC3=O)C(=O)CO)cc12 [Compound 163]", "Parameter Measured": "EC50", "Assay Result": "1000 to 10000 nM"}
{"Compound": "O=C(NCCOC1CCCC1)C(=O)[C@H](C[C@@H]1CCNC1=O)NC(=O)[C@@H]1[C@H]2CCC[C@H]2CN1C(=O)c1cc2c(Cl)cc(Cl)cc2[nH]1 [Compound 166]", "Parameter Measured": "EC50", "Assay Result": "< 1000 nM"}
{"Compound": "O=C1NCC[C@H]1C[C@H](NC(=O)[C@@H]1[C@H]2CCC[C@H]2CN1C(=O)c1cc2c(Cl)cccc2[nH]1)C(=O)CO [Compound 60]", "Parameter Measured": "EC50", "Assay Result": "< 1000 nM"}
{"Compound": "O=C1NCC[C@H]1C[C@H](NC(=O)[C@@H]1[C@H]2CCC[C@H]2CN1C(=O)c1cc2c(Cl)c(F)c(Cl)cc2[nH]1)C(=O)CO [Compound 121]", "Parameter Measured": "EC50", "Assay Result": "1000 to 10000 nM"}
{"Compound": "COc1cccc2[nH]c(C(=O)N3Cc4ccccc4C[C@H]3C(=O)N[C@@H](C[C@@H]3CCNC3=O)C(=O)COCc3ccccc3)cc12 [Compound 99]", "Parameter Measured": "EC50", "Assay Result": "10000 to 100000 nM"}
{"Compound": "O=C1NCC[C@H]1C[C@H](NC(=O)[C@@H]1[C@H]2CCC[C@H]2CN1C(=O)c1ccc(-c2ccccc2)[nH]1)C(=O)CO [Compound 144]", "Parameter Measured": "EC50", "Assay Result": "< 1000 nM"}
{"Compound": "COc1cccc2sc(C(=O)N3C[C@@H]4CCC[C@@H]4[C@H]3C(=O)N[C@@H](C[C@@H]3CCNC3=O)C(=O)CO)cc12 [Compound 72]", "Parameter Measured": "EC50", "Assay Result": "1000 to 10000 nM"}
{"Compound": "COc1nccc2[nH]c(C(=O)N3C[C@@H]4CCC[C@@H]4[C@H]3C(=O)N[C@@H](C[C@@H]3CCNC3=O)C(=O)CO)cc12 [Compound 93]", "Parameter Measured": "EC50", "Assay Result": "10000 to 100000 nM"}
{"Compound": "O=C1NCC[C@H]1C[C@H](NC(=O)[C@@H]1[C@H]2[C@H]3CC[C@H](C3)[C@H]2CN1C(=O)c1cc2c(Cl)cc(Cl)cc2[nH]1)C(=O)CO [Compound 135]", "Parameter Measured": "EC50", "Assay Result": "< 1000 nM"}

Could you share which EC50 value was measured for O=C(NC1CC1)C(=O)[C@H](C[C@@H]1CCNC1=O)NC(=O)[C@@H]1[C@H]2CCC[C@H]2CN1C(=O)c1cc2c(Cl)cc(Cl)cc2[nH]1 [Compound 148] ?
< 1000 nM

So what does the record say about EC50 for COc1cccc2[nH]c(C(=O)N3C[C@@H]4CCC[C@@H]4[C@H]3C(=O)N[C@@H](C[C@@H]3CCCNC3=O)C(O)S(=O)(=O)O)cc12 (stereo partly drawn) [Compound 53] ?
1000 to 10000 nM
